Origin of values: paper PMC10018337

Target: T1, CeMETT10-MTD (Caenorhabditis elegans, UniProt Q09357 1-314)
T1 sequence: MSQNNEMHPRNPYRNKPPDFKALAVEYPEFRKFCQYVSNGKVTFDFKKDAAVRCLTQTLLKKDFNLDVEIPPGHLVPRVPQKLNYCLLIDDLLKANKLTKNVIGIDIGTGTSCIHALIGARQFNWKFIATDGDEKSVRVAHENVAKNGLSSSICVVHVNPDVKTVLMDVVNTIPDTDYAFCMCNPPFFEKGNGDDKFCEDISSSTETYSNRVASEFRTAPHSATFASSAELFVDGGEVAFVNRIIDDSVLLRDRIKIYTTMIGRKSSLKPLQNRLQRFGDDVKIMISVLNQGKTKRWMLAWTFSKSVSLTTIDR
Assay: EMSA
quantity.kind: Kd (µM)
// units = µM; emit number, no label

Just so you know, measured Kd for sams-hp-ls (structured_RNA) RNA: GGCAACAAUAUGUUUCUUUACCUGUUACAACGGUUACUUUGAUUACAGAAACGGUGACUAAAACGGGUAUGAUCAUGUUGUGCCC came out at 22.3
